B1: Nibrin (Homo sapiens), O60934 (parent)
chain: MWKLLPAAGPAGGEPYRLLTGVEYVVGRKNCAILIENDQSISRNHAVLTANFSVTNLSQTDEIPVLTLKDNSKYGTFVNEEKMQNGFSRTLKSGDGITFGVFGSKFRIEYEPLVACSSCLDVSGKTALNQAILQLGGFTVNNWTEECTHLVMVSVKVTIKTICALICGRPIVKPEYFTEFLKAVESKKQPPQIESFYPPLDEPSIGSKNVDLSGRQERKQIFKGKTFIFLNAKQHKKLSSAVVFGGGEARLITEENEEEHNFFLAPGTCVVDTGITNSQTLIPDCQKKWIQSIMDMLQRQGLRPIPEAEIGLAVIFMTTKNYCDPQGHPSTGLKTTTPGPSLSQGVSVDEKLMPSAPVNTTTYVADTESEQADTWDLSERPKEIKVSKMEQKFRMLSQDAPTVKESCKTSSNNNSMVSNTLAKMRIPNYQLSPTKLPSINKSKDRASQQQQTNSIRNYFQPSTKKRERDEENQEMSSCKSARIETSCSLLEQTQPATPSLWKNKEQHLSENEPVDTNSDNNLFTDTDLKSIVKNSASKSHAAEKLRSNKKREMDDVAIEDEVLEQLFKDTKPELEIDVKVQKQEEDVNVRKRPRMDIETNDTFSDEAVPESSKISQENEIGKKRELKEDSLWSAKEISNNDKLQDDSEMLPKKLLLTEFRSLVIKNSTSRNPSGINDDYGQLKNFKKFKKVTYPGAGKLPHIIGGSDLIAHHARKNTELEEWLRQEMEVQNQHAKEESLADDLFRYNPYLKRRR

variants of: B1; details: with mdc1_human MDC1, Q14676
Sequence (Q14676 whole entry): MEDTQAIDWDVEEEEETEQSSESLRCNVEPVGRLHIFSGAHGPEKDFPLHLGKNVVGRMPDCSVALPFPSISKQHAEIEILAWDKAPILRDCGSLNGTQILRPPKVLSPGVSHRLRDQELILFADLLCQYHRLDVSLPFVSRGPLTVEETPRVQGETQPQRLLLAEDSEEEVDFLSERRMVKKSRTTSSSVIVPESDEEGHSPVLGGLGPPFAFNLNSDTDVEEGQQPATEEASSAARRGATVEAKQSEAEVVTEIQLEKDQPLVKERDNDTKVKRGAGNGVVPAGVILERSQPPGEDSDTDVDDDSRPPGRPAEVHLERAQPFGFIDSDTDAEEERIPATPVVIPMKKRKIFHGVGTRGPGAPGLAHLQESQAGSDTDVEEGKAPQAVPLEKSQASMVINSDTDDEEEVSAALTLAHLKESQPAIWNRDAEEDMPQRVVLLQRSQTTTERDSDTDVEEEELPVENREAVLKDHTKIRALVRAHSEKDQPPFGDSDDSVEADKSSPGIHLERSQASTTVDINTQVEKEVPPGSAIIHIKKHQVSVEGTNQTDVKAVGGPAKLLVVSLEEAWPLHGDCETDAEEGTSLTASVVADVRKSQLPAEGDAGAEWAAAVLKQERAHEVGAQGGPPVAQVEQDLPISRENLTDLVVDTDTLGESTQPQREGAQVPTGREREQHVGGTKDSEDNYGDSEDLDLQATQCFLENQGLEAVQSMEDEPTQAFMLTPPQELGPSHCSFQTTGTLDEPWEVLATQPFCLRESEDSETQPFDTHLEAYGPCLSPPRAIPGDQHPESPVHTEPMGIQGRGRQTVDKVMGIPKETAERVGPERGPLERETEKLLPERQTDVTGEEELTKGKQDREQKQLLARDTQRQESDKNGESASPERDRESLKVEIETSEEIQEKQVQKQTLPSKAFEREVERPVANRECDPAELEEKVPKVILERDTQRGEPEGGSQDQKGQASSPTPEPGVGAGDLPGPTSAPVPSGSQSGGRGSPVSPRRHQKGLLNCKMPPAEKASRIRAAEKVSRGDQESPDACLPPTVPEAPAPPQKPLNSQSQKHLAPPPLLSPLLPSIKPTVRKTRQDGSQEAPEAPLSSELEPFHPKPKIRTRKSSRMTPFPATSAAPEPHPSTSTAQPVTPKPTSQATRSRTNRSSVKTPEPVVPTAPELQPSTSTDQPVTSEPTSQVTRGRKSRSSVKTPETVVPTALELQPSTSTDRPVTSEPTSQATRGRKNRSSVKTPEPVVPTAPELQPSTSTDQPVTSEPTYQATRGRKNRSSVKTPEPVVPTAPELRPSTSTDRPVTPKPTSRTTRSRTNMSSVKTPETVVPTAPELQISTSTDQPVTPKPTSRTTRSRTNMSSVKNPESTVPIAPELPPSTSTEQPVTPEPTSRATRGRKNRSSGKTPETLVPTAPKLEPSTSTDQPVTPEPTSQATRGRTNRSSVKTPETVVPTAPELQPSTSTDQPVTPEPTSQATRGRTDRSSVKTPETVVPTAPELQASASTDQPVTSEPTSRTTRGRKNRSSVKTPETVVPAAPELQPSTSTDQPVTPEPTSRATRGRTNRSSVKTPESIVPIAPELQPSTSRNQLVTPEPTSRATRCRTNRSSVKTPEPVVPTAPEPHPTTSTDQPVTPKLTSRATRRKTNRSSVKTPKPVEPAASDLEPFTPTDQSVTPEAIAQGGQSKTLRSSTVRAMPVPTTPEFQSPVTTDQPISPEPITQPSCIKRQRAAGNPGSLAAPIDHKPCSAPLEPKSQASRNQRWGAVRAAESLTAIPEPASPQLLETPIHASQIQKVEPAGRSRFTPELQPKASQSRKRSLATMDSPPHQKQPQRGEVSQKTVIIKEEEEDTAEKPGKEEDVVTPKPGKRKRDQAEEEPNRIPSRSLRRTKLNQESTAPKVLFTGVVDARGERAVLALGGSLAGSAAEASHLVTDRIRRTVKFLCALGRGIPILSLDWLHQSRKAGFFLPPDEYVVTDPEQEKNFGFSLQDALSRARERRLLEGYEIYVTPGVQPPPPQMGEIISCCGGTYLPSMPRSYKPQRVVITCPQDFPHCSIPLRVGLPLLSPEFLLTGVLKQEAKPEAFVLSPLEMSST
assayReadout: effect of a mutation on the interaction

* K160M | decreasing interaction
* R28A | decreasing interaction
* S42A | decreasing interaction

FYI, the data here is from IntAct's records for PubMed 19804756.
